experimental_target: UniProt:A5A4K8
Sequence (A5A4K8 whole entry): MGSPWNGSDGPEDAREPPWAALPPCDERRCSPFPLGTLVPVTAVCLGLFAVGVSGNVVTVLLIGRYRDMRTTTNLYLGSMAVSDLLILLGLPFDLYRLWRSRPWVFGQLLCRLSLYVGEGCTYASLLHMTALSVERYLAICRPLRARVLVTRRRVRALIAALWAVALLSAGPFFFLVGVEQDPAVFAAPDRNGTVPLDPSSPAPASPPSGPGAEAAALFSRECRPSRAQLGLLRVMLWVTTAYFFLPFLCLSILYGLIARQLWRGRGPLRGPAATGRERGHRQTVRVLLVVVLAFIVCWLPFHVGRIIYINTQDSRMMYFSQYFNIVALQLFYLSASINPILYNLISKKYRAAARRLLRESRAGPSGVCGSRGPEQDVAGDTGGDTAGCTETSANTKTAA
procedure_text: Agonist activity at motilin receptor in rabbit smooth muscle assessed as maximal possible tissue contraction
The following molecules are shown together with reported EC50 values.
Give just the numeric value; µM need not be written.

As a guide, the following entries are already answered.
Task: Kindly indicate its recorded EC50. Item: CC[C@H]1OC(=O)[C@H](C)[C@@H](O[C@H]2C[C@@](C)(OC)[C@@H](O)[C@H](C)O2)[C@H](C)[C@@H](O[C@@H]2O[C@H](C)C[C@H](N(C)CCO)[C@H]2O)[C@](C)(O)C[C@@H](C)[C@H](O)[C@H](C)[C@@H](O)[C@]1(C)O
Output: 0.21

Task: Kindly indicate its recorded EC50. Item: CC[C@H]1OC(=O)[C@H](C)[C@@H](O[C@H]2C[C@@](C)(OC)[C@@H](O)[C@H](C)O2)[C@H](C)[C@@H](O[C@@H]2O[C@H](C)C[C@H](N(C)C3CCC3)[C@H]2O)[C@](C)(O)C[C@@H](C)[C@H](O)[C@H](C)[C@@H](O)[C@]1(C)O
Output: 0.35

Task: Kindly indicate its recorded EC50. Item: CC[C@H]1OC(=O)[C@H](C)[C@@H](O[C@H]2C[C@@](C)(OC)[C@@H](O)[C@H](C)O2)[C@H](C)[C@@H](O[C@@H]2O[C@H](C)C[C@H](N(C)C[C@H](C)O)[C@H]2O)[C@](C)(O)C[C@@H](C)[C@H](O)[C@H](C)[C@@H](O)[C@]1(C)O
Output: 0.36

The record that follows has no EC50 shown yet.
Task: Kindly indicate its recorded EC50. Item: CC[C@H]1OC(=O)[C@H](C)[C@@H](O[C@H]2C[C@@](C)(OC)[C@@H](O)[C@H](C)O2)[C@H](C)[C@@H](O[C@@H]2O[C@H](C)C[C@H](N(C)CC(C)(C)O)[C@H]2O)[C@](C)(O)C[C@@H](C)[C@H](O)[C@H](C)[C@@H](O)[C@]1(C)O
Output: 0.1
